# TARGET_OR_SYSTEM: E. coli Endo IV (Escherichia coli, UniProt P0A6C1)
# Construct: made in house
# PROTOCOL_DETAILS: E. coli Endo IV profiling counterscreen;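 note: selectivity counterscreen of candidate APE1 inhibitors against the bacterial endonuclease Endo IV, run in the same assay format as the primary APE1 high-throughput screen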
# Format: biochemical
# CONDITION_LABEL: read-out: EndoIV IC50
pIC50: −log10 of the molar value.
As shown below, each of these molecules has a reported pIC50 value.
MEASUREMENT_KIND: pIC50

                                   molecule  result
0  Cc1c(NS(=O)(=O)c2cc(C(=O)NCCN(C)C)ccc2Cl)c(=O)n(-c2ccccc2)n1C  < 4.24
1  NS(=O)(=O)c1cc(C(=O)NC2CCSc3ccccc32)ccc1Cl (stereo not drawn)  < 4.24
2  CC(C)C(C(=O)O)N1C(=O)/C(=C/C=C/c2ccco2)SC1=S (stereo not drawn)  < 4.24

----------
# TARGET_OR_SYSTEM: double-stranded 17-mer DNA fragment
# PROTOCOL_DETAILS: ThO (Thiazole Orange) DNA displacement assay;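 note: miniaturized displacement of the intercalating dye from unlabeled duplex DNA, used to flag nonspecific DNA binders, chiefly intercalators, groove binders may be missed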
# Assay type: binding
# CONDITION_LABEL: read-out: ThO-DNA binding IC50
pIC50: −log10 of the molar value.
As shown below, each of these compounds has a reported pIC50 value.
MEASUREMENT_KIND: pIC50

>>> print(df.to_string())
                                    compound  measurement_kind  result
 0  NC(=O)c1ccc(NC(=O)COC(=O)c2cc3c(s2)CCC3)cc1 [MLS002251079]             pIC50  < 4.24
 1  O=c1cc(-c2ccc(O)cc2)oc2c(C3OCC(O)C(O)C3O)c(O)c(C3OC(CO)C(O)C(O)C3O)c(O)c12 (stereo not drawn) [MLS000876755]             pIC50  < 4.24
 2  COc1ccc(C(=O)Nc2ccnn2C2CCN(Cc3ccc4nonc4c3)CC2)cc1 [MLS001090278]             pIC50  < 4.24
 3  CCCSC1=N/C(=C\C=C\c2ccco2)C(=O)S1 [MLS000114057]             pIC50  < 4.24
 4  Cn1c(SCC(=O)Nc2nncs2)nnc1C1CC1 [MLS001060429]             pIC50  < 4.24
 5  CC(=O)Nc1sc2c(c1-c1nc3ccccc3s1)CCN(C(C)C)C2 [MLS000419194]             pIC50  < 4.24
 6  CN(CC(=O)Nc1cccc(F)c1)C(=O)c1cc(-c2ccco2)nc2ccccc12 [MLS001156482]             pIC50    4.39
 7  CC(C)(C)OC(=O)C[C@@H]1C/C=C\C[C@@H](CC(=O)NCCO)C(=O)N[C@H](Cc2c[nH]c3ccccc23)COC1=O [MLS002320206]             pIC50  < 4.24
 8  O=C(CSc1nc(-c2ccc(F)cc2)nc2c1Cc1ccccc1O2)Nc1ccc(C(=O)O)cc1 [MLS000673045]             pIC50    5.49
 9  COc1ccc(OCCOc2ccc(/C=C3\C(=N)N4N=C(C)SC4=NC3=O)cc2)cc1 [MLS001359901]             pIC50  < 4.24
10  COc1ccc2c(c1)c(=O)oc1cc(OCC(=O)NC3CCCCC3)ccc12 [MLS000594161]             pIC50  < 4.24
11  COc1ccc(N2Cc3cccc(C(=O)O)c3C2=O)cc1 [MLS000120697]             pIC50  < 4.24
12  Cc1cccc(NC(=O)CNC(=O)CCc2nc3sc4c(c3c(=O)[nH]2)CCCC4)c1C [MLS001156641]             pIC50    4.34
13  O=c1/c(=C/c2ccco2)sc2nc(-c3ccccc3Br)nn12 [MLS000039532]             pIC50  < 4.24
14  NC(=O)Cn1c(=O)n(Cc2ccco2)c(=O)c2c3c(sc21)CCCCC3 [MLS000559128]             pIC50  < 4.24
15  Cc1cc(/C=C2\C(=O)NC(=O)N(Cc3ccco3)C2=O)c(C)n1-c1ccc(C(=O)O)cc1 [MLS000807042]             pIC50  < 4.24
16  O=C(O[C@@H]1OC2COC(=O)c3cc(O)c(O)c(O)c3-c3c(cc(O)c(O)c3O)C(=O)O[C@@H]([C@H]1O)[C@@H]2O)c1cc(O)c(O)c(O)c1 [MLS000563483]             pIC50  < 4.24
17  Cc1ccc(C)c(NC(=O)CN(C)C(=O)c2cccc(-n3cccc3)c2)c1 [MLS001161412]             pIC50  < 4.24
18  CC(=O)Oc1cc2cccc(OC(C)=O)c(=O)c2c(OC(C)=O)c1OC(C)=O [MLS001049122]             pIC50  < 4.24
19  O=C1CCCC(O)=C1N=Nc1ccc(C(=O)O)cc1 [MLS000759943]             pIC50  < 4.24
20  O=c1nc(N/N=C/c2ccco2)cn[nH]1 [MLS000685729]             pIC50  < 4.24
21  O=C(/C=C/c1ccc(O)c(O)c1)O[C@H](Cc1ccc(O)c(O)c1)C(=O)O [MLS000697677]             pIC50  < 4.24
22  COc1ccc(Cc2nnc(NC(=O)Cc3cccs3)s2)cc1OC [MLS000115025]             pIC50  < 4.24
23  O=C(Cc1ccc(S(=O)(=O)N2CCOCC2)s1)Nc1nc2c(s1)CCCC2 [MLS000567201]             pIC50    4.80
24  O=C1C=CC2=C3c4cc(O)c(O)cc4CC3(O)COC2=C1O (stereo not drawn) [NCGC00095664]             pIC50    4.95
25  Nc1c(/C=C2/C=CC(=O)C(O)=C2)c(=O)nc2sc(CC(=O)N3CCCCC3)nn12 [MLS001139223]             pIC50  < 4.24
26  O=C(O)Cc1ccc(S(=O)(=O)N2CCCC2)s1 [MLS002245326]             pIC50  < 4.24
27  COc1cccc(NC(=O)CN(C)C(=O)c2cc3c(s2)CCC3)c1 [MLS001142077]             pIC50    4.69
28  Nc1ccc2c(c1Cl)C(=O)c1ccc(N)c(Cl)c1C2=O [MLS000737360]             pIC50    5.20
29  CC(C(=O)O)N1C(=O)/C(=C/C=C/c2ccco2)SC1=S (stereo not drawn) [MLS000551724]             pIC50  < 4.24
